This collection of values is drawn from PubChem BioAssay (NCI).

- Test system: SN12C renal
- ASSAY METHOD TEXT: NCI tumour cell line growth inhibition, 48 h; in the data active = GI50 below about 0.43 µM; inactive = the rest
Your reply should match one of these outcome classes. active, inactive

{"columns": ["MOLECULE", "GROUP"],
 "data": [
  ["COc1cc2c(cc1OCCCN1CCN(c3ncnc4ccccc34)CC1)N=CC1CCCN1C2=O (stereo unspecified)", "active"],
  ["Nc1nc(-c2ccc(Cl)cc2)cc(-c2ccccc2)c1-c1nc2ccccc2o1", "inactive"],
  ["CCOCCOC[C@H]1CCCN(c2ccnc3sc(C(N)=O)c(N)c23)C1", "inactive"],
  ["C/C(=C\\c1ccn(-c2ccc(N)cc2F)n1)[C@@H]1C[C@@H]2O[C@]2(C)CCC[C@H](C)[C@H](O)[C@@H](C)C(=O)C(C)(C)[C@@H](O)CC(=O)O1", "active"],
  ["COc1cc2c3c(n(CCCN4CCCC(O)C4)c(=O)c2cc1OC)-c1cc2c(cc1C3=O)OCO2 (stereo unspecified)", "active"]
]}

(Q) So what was the verdict on `Cc1ccc(NC(=O)c2cc3ccccc3cc2O)c(C)c1.Cc1ccc(NC(=O)c2cc3ccccc3cc2[O-])c(C)c1.[Ni+2]` in this test?
(A) inactive

(Q) How did this test come out for `c1ccc2c3c(ccc2c1)-c1c(ccc2c(NCCCCN4CCCCC4)cccc12)C3` ?
(A) inactive

(Q) Please state the recorded outcome for this molecule: `COc1ccc2nc3ccccc3c(NCc3ccc(C)cc3)c2c1`
(A) inactive

(Q) For this molecule, state the assay outcome: `COc1cnc2c(c1)C(=O)c1c-2n(CCCNC(C)C)c(=O)c2cc([N+](=O)[O-])ccc12`
(A) active

(Q) What call does the record list for `C[CH2][Sn]([CH2]C)([O]C(=O)c1ccc(F)cc1)[O][Sn]([CH2]C)([CH2]C)[O]C(=O)c1ccc(F)cc1` ?
(A) inactive

(Q) Lab log entry: Cc1ccc(C2=NN(c3ccc(S(N)(=O)=O)cc3)C(c3cn(-c4ccccc4)nc3-c3ccccc3)C2)cc1 (stereo unspecified) — outcome as called in the assay?
(A) inactive
